TARGET ENTITY: KRas G12V (Homo sapiens, UniProt P01116, G12V)
Sequence (P01116 1-169 isoform P01116-2 G12V): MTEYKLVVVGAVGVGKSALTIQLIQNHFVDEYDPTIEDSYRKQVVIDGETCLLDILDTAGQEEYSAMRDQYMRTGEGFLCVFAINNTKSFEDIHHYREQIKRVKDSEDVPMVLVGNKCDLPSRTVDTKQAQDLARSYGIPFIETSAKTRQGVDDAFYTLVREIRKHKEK
PROTOCOL NOTES: biochemical
CONDITION DETAILS: Binding to KRas (IC50 nM) G12V, TR-FRET displacement, KRas G12V
Parameter IC50: see the listing below.
Report as a plain number; the unit nM is understood.

Please review the entries below; each comes with its answer.
[
  {
    "COMPOUND": "CCc1cccc2cccc(N3CCc4c(nc(OCC5(CN(C)C)CC5)nc4NCc4nnc5n4CCCCC5)C3)c12",
    "IC50 [nM]": 4520
  },
  {
    "COMPOUND": "Cc1cc2[nH]ncc2c(N2CCc3c(nc(OCC45CCCN4CCC5)nc3N3CCOCC(C)(O)C3)C2)c1C (stereo not drawn)",
    "IC50 [nM]": 108
  },
  {
    "COMPOUND": "CCc1cccc2cccc(N3CCc4c(nc(OCC5(CN(C)C)CC5)nc4N4CC(CO)OC(C(F)(F)F)C4)C3)c12 (stereo not drawn)",
    "IC50 [nM]": 1720
  }
]

Turning now to a further compound:
Task item: # IC50 lookup, item CCc1c(F)ccc2cc(O)cc(N3CCc4c(nc(OC[C@@]56CCCN5C[C@H](F)C6)nc4N4CCCn5nc(NS(C)(=O)=O)cc5C4)C3)c12
Reply: 3
